system: DU-145 prostate; assay: NCI-60 one-dose screen, 48 h; conditions: 10 µM unless noted
This is part of a sample that, as a whole, favours compounds with a hit. Of some 83,000 tested, about 20% had one in any assay. Calls of active or inactive are those of the source. Rule for the calls: active = growth percent below 10; inactive = the rest.
Classes used: active, inactive

>>> print(df.to_string())
                                   molecule  assigned_category
0  CCOC(=O)c1c(C)nc2c(c1N)C(=O)C(=O)N2Cc1ccc(C(F)(F)F)cc1           inactive
1  COc1c(Cl)cc(Cl)c2ccc(C=C3C(=O)NC(=S)NC3=O)nc12           inactive
2  N#Cc1c(Nc2ccccc2)nn2cc(-c3nc4ccccc4s3)c(N)nc12           inactive
3  CCSc1ccc2c(c1)N(CCCN1CCN(C)CC1)c1ccccc1S2           inactive
4  Cc1c(C2=CCCCC2)c2ccccn2c1C(=O)c1cccc(S(=O)(=O)N2CCOCC2)c1           inactive
5  O=C(Nc1cccc(Cl)c1)Oc1c(Br)c(Br)c(Br)c(Br)c1Br           inactive
6  COc1ccc(/C=C/C(=O)c2ccc(Nc3ncnc4ccccc34)cc2)cc1OC           inactive
7  Cc1[nH]n(C(=O)c2ccncc2)c(=O)c1N=Nc1ccc(F)c(Cl)c1           inactive
8  C=C1C(=O)O[C@H]2[C@H]1CC/C(COC(=O)/C=C/c1c[nH]c3ccccc13)=C\CC[C@@]1(C)O[C@@H]21             active
9  COc1ccccc1/C=C1\COc2ccc(-c3ccccc3)cc2C1=O             active

---

test system: EKVX NSCLC; test: NCI-60 one-dose screen, 48 h (100 = growth as untreated, 0 = no growth, -100 = all killed); conditions: 10 µM unless noted
This is part of a sample that, as a whole, favours compounds with a hit. Of some 83,000 tested, about 20% had one in any assay.
Class membership depends on growth alone; the intervals are zone 1 = under 50%, zone 2 = from 50% up to 80%, zone 3 = 80% and over

>>> print(df.to_string())
                                    compound  assigned_category
 0  CCOC(=O)N1CCc2c(sc3nc4nc[nH]n4c(=O)c23)C1             zone 3
 1  O=C(CNCCO)Nc1ccc2ncnc(Nc3ccc(OCc4cccc(F)c4)c(Cl)c3)c2c1             zone 1
 2             c1ccc(CCSc2ncnc3nc[nH]c23)cc1             zone 2
 3  COc1ccc(NC(=O)c2sc3nc(C)c(C(=O)CCc4cccc(OC)c4)cc3c2N)cc1             zone 3
 4  O=C1c2ccccc2C(=O)c2c(NCCN=Cc3ccccc3O)cccc21             zone 2
 5  O=S(=O)(NCCNc1nccc(-c2c(-c3ccc(F)c(O)c3)nc3sccn23)n1)c1ccccc1             zone 3
 6  CCOC(=O)C1=C(C)NC(C)=C(C(=O)OCC)C1c1cc(Br)c(O)c(OC)c1             zone 1
 7   CCCCCCOc1ccc(C(=N)N(CCCC)CCCC)c2ccccc12             zone 1
 8  c1ccc2c(-c3c4ccsc4cc4[nH]c5ccccc5c34)c[nH]c2c1             zone 2
 9       O=C(Nc1ccc(Cl)cc1)Nc1ccc(Cl)c(Cl)c1             zone 1
10    Cn1c2c(Cl)c(Cl)ccc2c2cc(N)[nH]c(=O)c21             zone 2
11  CCNC(=O)c1[nH]cc(-c2ccc(OC)cc2)c1-c1cc(OC)cc(OC)c1             zone 3
12  COC(=O)C1=C(C(=O)ONCCN(C)C)C2C=CC1(C(Cc1ccccc1)Nc1ccc(F)cc1)O2 (stereo not given)             zone 3
13  COc1ccc(/C=C\c2nc3ccccc3s2)cc1OP(=O)(O)O             zone 2
14  COc1ccc(C(=O)c2cc(C)c(OC)c(C)c2)c(OC)c1N(C(=O)C(Cl)Cl)C(=O)C(Cl)Cl             zone 2
15  Cc1ccc(C2CC(c3cccc(Nc4ccncc4)c3)=NN2c2ccc(Cl)cc2)cc1 (stereo not given)             zone 1
16  O=C(O)c1cn(C2CC2)c2cc(N3CCN(C(=O)C[n+]4cccc5ccccc54)CC3)c(F)cc2c1=O             zone 3
17  [2H]C1([2H])NC([2H])([2H])C([2H])([2H])N(c2ccc(Nc3ncc4cc(C(=O)N(C)C)n(C5CCCC5)c4n3)nc2)C1([2H])[2H]             zone 2
18  COC(=O)Nc1nc2ccc(C(=O)c3cccc(I)c3)cc2[nH]1             zone 1

---

system: CCRF-CEM leukemia; assay: NCI-60 one-dose screen, 48 h (100 = growth as untreated, 0 = no growth, -100 = all killed); conditions: 10 µM unless noted
About 83,000 compounds went through this panel and 20% of them were active in at least one assay; those are over-represented in the sample as a whole. The source made the active and inactive calls. The calls were made as follows: active = growth percent below 10; inactive = the rest.
Recorded growth values for a group of compounds are listed next.
REPORTED METRIC: growth

>>> print(df.to_string())
                                   compound  measurement_target            result
0  C/C(=C(/c1ccccc1)c1ccc(OCC(O)CNCCN2CCOCC2)cc1)c1ccccc1 (centres undefined)   CCRF-CEM leukemia  56.5% (inactive)
1  CNC(=O)NCC1OC(n2cnc3c(NC(=O)Nc4ccccc4)ncnc32)C(O[Si](C)(C)C(C)(C)C)C1O[Si](C)(C)C(C)(C)C (centres undefined)   CCRF-CEM leukemia  42.6% (inactive)
2  CCN(CC)CCCC(C)Nc1cc(-c2cccc(OC(F)(F)F)c2)nc2ccc(N3CCCC3)cc12 (centres undefined)   CCRF-CEM leukemia   -22.4% (active)
3   CCNC(=S)NNC(=O)c1cc2ccc1CCc1ccc(cc1)CC2   CCRF-CEM leukemia   107% (inactive)
4  C=C(C)[C@@H]1CC[C@]2(CO)CC[C@]3(C)[C@H](CC[C@@H]4[C@@]5(C)CCCNC(C)(C)[C@@H]5CC[C@]43C)[C@@H]12   CCRF-CEM leukemia  12.4% (inactive)
5  CCCCOc1ccc(/C=N/Nc2cc(C)nc3ccc(Cl)cc23)cc1   CCRF-CEM leukemia    -5.7% (active)
6  CCCCCN1C=C/C(=C\C(=O)N(C)c2ccc(Br)cc2)c2ccccc21   CCRF-CEM leukemia  97.9% (inactive)
7                      CCCc1cc2c(cc1Br)OCO2   CCRF-CEM leukemia  96.5% (inactive)
8  O=S(=O)(O)c1cc(O)c2c(N=Nc3ccc(Nc4ccccc4)c4c(S(=O)(=O)O)cccc34)cc(S(=O)(=O)O)cc2c1   CCRF-CEM leukemia   108% (inactive)

---

test system: HT29 colon; experiment: NCI-60 one-dose screen, 48 h (100 = growth as untreated, 0 = no growth, -100 = all killed); details: 10 µM unless noted
Compounds without any hit were thinned out: in the full panel of roughly 83,000, 20% have a hit.
REPORTED METRIC: growth (%)

                                    compound  measurement_target  units_label  result
 0         O=C(O)CNC(=O)CN1C(=O)c2ccccc2C1=O          HT29 colon            %     110
 1    O=C1Nc2c(ccc(Cl)c2Cl)/C1=C/c1ccc(O)cc1          HT29 colon            %    94.7
 2  CCCCc1ccc(Nc2nnc(SCC(=O)NC(=O)NCC)s2)cc1          HT29 colon            %     103
 3  COc1cc2c(cc1[N+](=O)[O-])-c1ccc([N+](=O)[O-])cc1/C2=N\O          HT29 colon            %    75.3
 4  N#CC1=C(N)Oc2c(ccc3ccccc23)C1c1ccc([N+](=O)[O-])cc1 (centres undefined)          HT29 colon            %    90.3
 5  CN1CCN(CC#CCNC(=O)[C@]23CCC(C)(C)C[C@H]2C2=CC[C@@H]4[C@@]5(C)Cc6c([nH]c7ccccc67)C(C)(C)[C@@H]5CC[C@@]4(C)[C@]2(C)CC3)CC1          HT29 colon            %    7.18
 6  Clc1ccc(C2CC(c3cccc(Nc4ccncc4)c3)=NN2c2ccccc2)cc1 (centres undefined)          HT29 colon            %   -9.64
 7  CCOc1ccc(/C=N/Nc2cc(C)nc3ccc(Cl)cc23)cc1          HT29 colon            %    26.9
 8  Cc1cc(Nc2cccc(C(F)(F)F)c2)n2c(nc3ccccc32)c1C#N          HT29 colon            %    13.2
 9  Nc1ncc(C#Cc2cncc(NC(=O)c3cccc(C(F)(F)F)c3)c2)c2cccnc12          HT29 colon            %    27.4
10        COc1ccc(-c2c(-c3ccccc3)noc2N)cc1OC          HT29 colon            %     101
11  Fc1cc(C2=NNC(c3ccc[nH]3)C2)ccc1-n1ccc(C(F)(F)F)n1 (centres undefined)          HT29 colon            %    92.9
12  Cc1ccc(-c2csc(/N=C3\C(=O)Nc4ccccc43)n2)cc1          HT29 colon            %   -8.75
13  C=C(C)[C@H]1CC/C(C)=C/CC[C@]2(C)O[C@H]2CC/C(COC(=O)[C@@H](OC(C)=O)[C@H](NC(=O)c2ccccc2)c2ccccc2)=C\[C@@H]1O          HT29 colon            %     102
14    N#C/C(=C\c1ccc(Br)cc1)n1nnc2cccc(F)c21          HT29 colon            %    11.8
15  O=C(/C=C\c1ccc(OCCCCCC[P+](c2ccccc2)(c2ccccc2)c2ccccc2)cc1)c1ccc2c(c1)OCCO2          HT29 colon            %   -17.5
16  CC(=O)c1c[nH]c2ccc(-c3ccnc(Nc4ccc(NC(=O)c5cccc(F)c5)c(CN5CCOCC5)c4)n3)cc12          HT29 colon            %    7.18
17  COc1cc(C(=O)c2cnc(-c3ccc4cc[nH]c4c3)[nH]2)cc(OC)c1OC          HT29 colon            %   -21.6
18  O=C(OC(OC(=O)c1cc(Cl)cc(Cl)c1)c1cccc2ccccc12)c1ccccc1 (centres undefined)          HT29 colon            %    86.7
19   COc1ccc(/C=C/C(=O)c2ccc(OC)c(OC)c2)cc1O          HT29 colon            %    63.8
20  OC1(c2ccc(Cl)c(C(F)(F)F)c2)CCN(CCCC(c2ccc(F)cc2)c2ccc(F)cc2)CC1          HT29 colon            %   -88.1
21  C[C@H]1[C@H](C)CC[C@]2(CO)CC[C@]3(C)C(=CC[C@@H]4[C@@]5(C)CCCNC(C)(C)[C@@H]5CC[C@]43C)[C@H]12          HT29 colon            %   -75.4
22  CCN(CC)CCCC(C)Nc1c2c(nc3ccc(OC)cc13)CCCC2 (centres undefined)          HT29 colon            %    79.4
23  COc1ccc(-c2nc(SC(C)C)nc(NNC(N)=O)c2C#N)cc1          HT29 colon            %     106
24  O=C(CN1CCOCC1)Nc1ccc2ncnc(Nc3ccc(Oc4cccc(F)c4)c(Cl)c3)c2c1          HT29 colon            %    83.5
25  COc1ccc(-c2nc(N/N=C/c3c[nH]c4ccccc34)nc(N3CCOCC3)c2C#N)cc1          HT29 colon            %    51.4
26  COc1cc(NCC(O)CN(CC(C)C)C2CCCC2)c2ncccc2c1 (centres undefined)          HT29 colon            %    78.3
27  O=C1c2ccccc2C(=O)c2c(NCCN=Cc3ccccc3O)cccc21          HT29 colon            %    32.4
28  Cc1nn(-c2ccccc2)c(N2CCOCC2)c1/C=N/N=c1\sc2ccccc2n1C          HT29 colon            %    66.5
29  COc1cc(/C=C/C(=O)c2ccc(Nc3ncnc4ccccc34)cc2)cc(OC)c1          HT29 colon            %   -38.1
30  COc1ccc(-c2nc(SCCC(C)C)nc(N/N=C(/C)c3ccc(C)cc3)c2C#N)cc1          HT29 colon            %     112
31         CN(C)Cc1c(-c2ccccc2)[nH]c2ccccc12          HT29 colon            %    89.1
32  Cc1c2c(cc[n+]1Cc1ccccc1)c1ccc(OCC3CCCCC3)cc1n2CC1CCCCC1          HT29 colon            %     -79
33  O=C1NC(=S)NC(=O)C1=Cc1cn(Cc2ccccn2)c2ccccc12          HT29 colon            %    72.2
34     COc1cc(NCCCN(CC(C)C)CC(C)C)c2ncccc2c1          HT29 colon            %    82.7
35           Cn1ncc2c(Nc3ccccc3Cl)nc(Cl)nc21          HT29 colon            %    96.2
36  CC(=O)OCC(=O)[C@@]1(O)CC[C@H]2[C@@H]3CC(=C(Br)Br)C4=CC(=O)CC[C@]4(C)[C@H]3C(=O)C[C@@]21C          HT29 colon            %    92.1
37  CCCCCCOc1ccc(/C=N/Nc2cc(C)nc3ccc(Br)cc23)cc1          HT29 colon            %   -65.5
38  O=C1c2cccnc2C(=O)c2nc3cc(N4CCN(C5CC5)CC4)ccc3nc21          HT29 colon            %   -21.3
